Please respond with reported Population Fragmented Nuclei (%) for every item in the list.
Tested on: U2OS
Assay: Multiplex assay against U2OS
Format: toxicity, cell-based
Settings: human, 24 h, 10 µM, compound concentration 10 uM, replicate 2
Answers are plain numbers, in %.

Solved cases (4 shown):
compound: COc1ccc(Oc2cc(NCCC(F)(F)F)c3ncc(-c4ccc(C(=O)NC5CC5)c(C)c4)n3n2)c(F)c1F
measured.target: U2OS
unit.text: %
Population Fragmented Nuclei (%): 13

compound: Cc1nc(-c2cn3c(n2)-c2ccc(-c4cnn(C(C)(C)C(N)=O)c4)cc2OCC3)n(C(C)C)n1
measured.target: U2OS
unit.text: %
Population Fragmented Nuclei (%): 4

compound: Cn1cncc1[C@@](O)(COc1ccc(C#N)cc1-c1ccc(OC(F)(F)F)cc1)c1ccc(C#N)cc1
measured.target: U2OS
unit.text: %
Population Fragmented Nuclei (%): 18

compound: CN(C)C(=O)N[C@H]1CC[C@H](CCN2CCN(c3cccc(Cl)c3Cl)CC2)CC1.Cl [CARIPRAZINE HYDROCHLORIDE]
measured.target: U2OS
unit.text: %
Population Fragmented Nuclei (%): 23

Parameters: items (list). Returns: Population Fragmented Nuclei (%) for each item.
1. CN(C)CC#Cc1ccc(OCCCc2sc(N3CCc4cccc(C(=O)Nc5nc6ccccc6s5)c4C3)nc2C(=O)O)c(F)c1
2. Cc1cc(C)cc(-c2cnc3cc(Cl)c(-c4cccc(O)c4)cc3c2OCCCN)c1
3. CC(C)NCC(O)COc1ccc(CCOCC2CC2)cc1.Cl (stereo not drawn) [BETAXOLOL HYDROCHLORIDE]
4. Cc1csc2c(N[C@@H](C)CN3CCN(S(=O)(=O)c4ccc(Cl)c(Cl)c4)CC3)ncnc12

[32, 24, 7, 15]
